Tested on: Amaranthus retroflexus (AMARE)
Experiment: Post-emergence herbicidal activity, AMARE
Format: in vivo
Conditions: % visual injury compared to treatment control, 7 days after treatment
From the text: Selected compounds of the invention were screened at 100 PPM against Amaranthus retroflexus (AMARE), Echinochloa crus-galli (ECHCG), Kochia scoparia (KCHSC), and Setaria italica (SETIT). […] Compounds were formulated in 25% Acetone, 1% Crop oil concentrate (COC-Agridex), 0.1% Tween-20, and 2.5% Ammonium sulphate (AMS). […] Plants were placed back in the growth chamber and evaluated for % visual injury compared to TC 7 days after treatment (DAT). […]
Each record here notes measured Post-emergence (100 ppm) AMARE, percentage control.
API: value field is a number in %; no unit string.

Q: Lookup: Post-emergence (100 ppm) AMARE, percentage control / Amaranthus retroflexus (AMARE) / CCC(=O)NS(=O)(=O)c1cc(-c2c(F)c(F)c(F)c(F)c2F)c(F)cc1Cl
Ans: 100

Q: Lookup: Post-emergence (100 ppm) AMARE, percentage control / Amaranthus retroflexus (AMARE) / C[C@@H](Sc1cc(-c2c(F)c(F)c(F)c(F)c2F)c(F)cc1Cl)C(=O)NCCC(=O)O
Ans: 100

Q: Lookup: Post-emergence (100 ppm) AMARE, percentage control / Amaranthus retroflexus (AMARE) / CCC(=O)NS(=O)(=O)c1cc(-c2c(F)cc(F)c(F)c2F)c(F)cc1Cl
Ans: 100

Q: Lookup: Post-emergence (100 ppm) AMARE, percentage control / Amaranthus retroflexus (AMARE) / COC(=O)CCNC(=O)[C@@H](C)Sc1cc(-c2c(F)c(F)c(F)c(F)c2F)c(F)cc1Cl (single isomer, unassigned)
Ans: 100
